Where do the numbers come from? From the NIST ThermoML archive (doi:10.1016/j.jct.2012.06.018).

Details: 318.15 K; 101.33 kPa; Liquid; Capillary tube (Ostwald / Ubbelohde) method

>  <compound>
CCCC[n+]1ccccc1.O=S(=O)([N-]S(=O)(=O)C(F)(F)F)C(F)(F)F [1-butylpyridinium bis[(trifluoromethyl)sulfonyl]imide]

>  <viscosity [mPa·s]>
27.62

$$$$
>  <compound>
CCCC[n+]1cccc(C)c1.O=S(=O)([O-])C(F)(F)F [1-butyl-3-methylpyridinium trifluoromethanesulfonate]

>  <viscosity [mPa·s]>
48.9

$$$$
>  <compound>
CCCC[n+]1cccc(C)c1.O=S(=O)([N-]S(=O)(=O)C(F)(F)F)C(F)(F)F

>  <viscosity [mPa·s]>
29.05

$$$$
>  <compound>
CCCCCC[n+]1ccccc1.O=S(=O)([N-]S(=O)(=O)C(F)(F)F)C(F)(F)F [1-hexylpyridinium bis(trifluromethylsulfonyl)imide]

>  <viscosity [mPa·s]>
105.99

$$$$
>  <compound>
CCCC[n+]1ccccc1C.O=S(=O)([N-]S(=O)(=O)C(F)(F)F)C(F)(F)F

>  <viscosity [mPa·s]>
37.39

$$$$
>  <compound>
CCCC[n+]1cccc(C)c1.F[B-](F)(F)F [1-butyl-3-methylpyridinium tetrafluoroborate]

>  <viscosity [mPa·s]>
59.05

$$$$
>  <compound>
CC[n+]1ccccc1.O=S(=O)([N-]S(=O)(=O)C(F)(F)F)C(F)(F)F [1-ethylpyridinium bis[(trifluoromethyl)sulfonyl]imide]

>  <viscosity [mPa·s]>
20.2

$$$$
>  <compound>
CCCC[n+]1ccc(C)cc1.O=S(=O)([N-]S(=O)(=O)C(F)(F)F)C(F)(F)F

>  <viscosity [mPa·s]>
25.18

$$$$
